target: HCK (human); experiment: radiometric filter-binding kinase assay, Kinase HotSpot; settings: compound 0.5 µM; ATP 10 µM
Use Criterion met when the recorded residual activity is no lower than 90%; use Criterion not met when it is lower.

{"molecule": "Nc1ccc2ncnc(NCCc3ccc(Oc4ccccc4)cc3)c2c1", "assay-target": "HCK (human)", "category": "Criterion met"}
{"molecule": "CO[C@H]1CC2CC[C@@H](C)[C@@](O)(O2)C(=O)C(=O)N2CCCC[C@H]2C(=O)OC([C@H](C)C[C@@H]2CC[C@@H](O)[C@H](OC)C2)CC(=O)[C@H](C)/C=C(\\C)[C@@H](O)[C@@H](OC)C(=O)[C@H](C)C[C@H](C)/C=C/C=C/C=C/1C (stereo partly drawn)", "assay-target": "HCK (human)", "category": "Criterion met"}
{"molecule": "N#C/C(=C(/N)Sc1ccc(N)cc1)c1ccccc1C(F)(F)F", "assay-target": "HCK (human)", "category": "Criterion met"}
{"molecule": "COc1cc2ncnc(Nc3cccc(Cl)c3)c2cc1OC", "assay-target": "HCK (human)", "category": "Criterion not met"}
{"molecule": "Nc1ncnc2c1c(-c1ccc(Oc3ccccc3)cc1)cn2C1CCCC1", "assay-target": "HCK (human)", "category": "Criterion not met"}
{"molecule": "Cc1ccc(NC2=CC(=O)c3sc(C)nc3C2=O)cc1", "assay-target": "HCK (human)", "category": "Criterion met"}
{"molecule": "c1ccc(-c2n[nH]cc2-c2ccnc3ccccc23)nc1", "assay-target": "HCK (human)", "category": "Criterion met"}
{"molecule": "CCN(CC)CCNC(=O)c1c(C)[nH]c(/C=C2\\C(=O)Nc3ccc(F)cc32)c1C", "assay-target": "HCK (human)", "category": "Criterion not met"}
{"molecule": "O=C1NC(=O)c2c1c1c3ccccc3n3c1c1c2c2ccccc2n1C1CCC3O1", "assay-target": "HCK (human)", "category": "Criterion not met"}
{"molecule": "O=S(=O)(c1cccc2cnccc12)N1CCCNCC1", "assay-target": "HCK (human)", "category": "Criterion met"}
{"molecule": "CCN(CC)CCNC(=O)c1c(C)[nH]c(/C=C2\\C(=O)Nc3ccc(Cl)cc32)c1C", "assay-target": "HCK (human)", "category": "Criterion not met"}
{"molecule": "CCCC(=O)Oc1ccc2[nH]c(C(=O)c3cc4ccccc4[nH]3)cc2c1", "assay-target": "HCK (human)", "category": "Criterion met"}
{"molecule": "Nc1cccc(-c2cc3c(Oc4cccc(O)c4)ncnc3[nH]2)c1", "assay-target": "HCK (human)", "category": "Criterion not met"}
{"molecule": "c1ccc(-c2n[nH]c3c2oc2ccccc23)cc1", "assay-target": "HCK (human)", "category": "Criterion met"}
{"molecule": "N#CC(C#N)=C(N)/C(C#N)=C/c1ccc(O)cc1", "assay-target": "HCK (human)", "category": "Criterion met"}
{"molecule": "Cc1ccc(Nc2nccc(N(C)c3ccc4c(C)n(C)nc4c3)n2)cc1S(N)(=O)=O", "assay-target": "HCK (human)", "category": "Criterion not met"}
{"molecule": "CNc1cc2c(Nc3cccc(Br)c3)ncnc2cn1", "assay-target": "HCK (human)", "category": "Criterion not met"}
{"molecule": "Cc1ccc(S(=O)(=O)/C=C/C#N)cc1", "assay-target": "HCK (human)", "category": "Criterion met"}
{"molecule": "O=C1Nc2ccc(Cl)cc2/C1=C/c1cc(Cl)c(O)c(Cl)c1", "assay-target": "HCK (human)", "category": "Criterion not met"}

###

# key: entry, value: residual activity
target: EPHA5 (human); test: radiometric filter-binding kinase assay, Kinase HotSpot; details: compound 0.5 µM; ATP 10 µM
parameter-measured: residual activity (%)

{"cpd-smiles": "CC(C)N(CCC(=O)c1ccc2ccccc2c1)Cc1ccccc1", "assay-target": "EPHA5 (human)", "parameter-measured": "residual activity", "recorded-number": 118}
{"cpd-smiles": "O=S(=O)(c1cccc2cnccc12)N1CCCNCC1", "assay-target": "EPHA5 (human)", "parameter-measured": "residual activity", "recorded-number": 90.5}
{"cpd-smiles": "Nc1cccc(-c2cc3c(Oc4cccc(O)c4)ncnc3[nH]2)c1", "assay-target": "EPHA5 (human)", "parameter-measured": "residual activity", "recorded-number": 41.7}
{"cpd-smiles": "CCOC(=O)c1c(C)[nH]c(/C=C2\\C(=O)Nc3ccccc32)c1C", "assay-target": "EPHA5 (human)", "parameter-measured": "residual activity", "recorded-number": 91.9}
{"cpd-smiles": "N#C/C(=C(/N)Sc1ccc(N)cc1)c1ccccc1C(F)(F)F", "assay-target": "EPHA5 (human)", "parameter-measured": "residual activity", "recorded-number": 116}
{"cpd-smiles": "CCC(=O)Nc1ccc2ncnc(Nc3cccc(Br)c3)c2c1", "assay-target": "EPHA5 (human)", "parameter-measured": "residual activity", "recorded-number": 101}
{"cpd-smiles": "CNc1cc2c(Nc3cccc(Br)c3)ncnc2cn1", "assay-target": "EPHA5 (human)", "parameter-measured": "residual activity", "recorded-number": 106}
{"cpd-smiles": "O=C1NC(=O)/C(=C/c2ccc3c(c2)OC(F)(F)O3)S1", "assay-target": "EPHA5 (human)", "parameter-measured": "residual activity", "recorded-number": 100}
{"cpd-smiles": "Oc1cccc(-c2nc(N3CCOCC3)c3oc4ncccc4c3n2)c1", "assay-target": "EPHA5 (human)", "parameter-measured": "residual activity", "recorded-number": 102}
{"cpd-smiles": "CCN(CC)CCNC(=O)c1c(C)[nH]c(/C=C2\\C(=O)Nc3ccc(F)cc32)c1C", "assay-target": "EPHA5 (human)", "parameter-measured": "residual activity", "recorded-number": 87.6}
{"cpd-smiles": "Cc1ccc(Nc2nccc(N(C)c3ccc4c(C)n(C)nc4c3)n2)cc1S(N)(=O)=O", "assay-target": "EPHA5 (human)", "parameter-measured": "residual activity", "recorded-number": 99.7}

###

target: PRKD1 (human) (UniProt Q15139); assay: radiometric filter-binding kinase assay, Kinase HotSpot; details: compound 0.5 µM; ATP 10 µM
Sequence (Q15139 whole entry, looked up): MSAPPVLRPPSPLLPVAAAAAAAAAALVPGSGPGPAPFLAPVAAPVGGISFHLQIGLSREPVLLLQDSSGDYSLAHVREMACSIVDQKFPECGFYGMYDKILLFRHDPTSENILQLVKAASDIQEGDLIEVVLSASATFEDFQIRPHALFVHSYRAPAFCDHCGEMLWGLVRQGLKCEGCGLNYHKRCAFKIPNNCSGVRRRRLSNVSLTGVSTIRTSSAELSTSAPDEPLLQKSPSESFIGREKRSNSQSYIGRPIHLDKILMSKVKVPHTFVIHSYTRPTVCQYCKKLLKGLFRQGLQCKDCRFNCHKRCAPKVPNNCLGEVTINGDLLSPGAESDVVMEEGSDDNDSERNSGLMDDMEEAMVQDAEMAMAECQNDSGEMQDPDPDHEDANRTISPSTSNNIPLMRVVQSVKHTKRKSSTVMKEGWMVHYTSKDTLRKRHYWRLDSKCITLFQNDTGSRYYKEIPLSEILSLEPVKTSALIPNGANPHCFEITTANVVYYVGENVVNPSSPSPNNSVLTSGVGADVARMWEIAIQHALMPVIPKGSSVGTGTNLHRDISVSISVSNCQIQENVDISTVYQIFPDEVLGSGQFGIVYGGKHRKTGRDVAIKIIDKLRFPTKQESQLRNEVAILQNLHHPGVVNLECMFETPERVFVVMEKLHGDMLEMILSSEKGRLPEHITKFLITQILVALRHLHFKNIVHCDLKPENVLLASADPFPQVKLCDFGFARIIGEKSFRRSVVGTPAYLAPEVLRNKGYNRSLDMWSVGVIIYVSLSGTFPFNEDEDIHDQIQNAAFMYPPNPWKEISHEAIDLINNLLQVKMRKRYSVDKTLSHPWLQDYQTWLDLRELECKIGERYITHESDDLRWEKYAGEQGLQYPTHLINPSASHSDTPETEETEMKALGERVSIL

{"compound": "COc1cc2ncnc(Nc3cccc(Cl)c3)c2cc1OC", "residual activity": "92.3%"}
{"compound": "Cc1[nH]c(/C=C2\\C(=O)Nc3ccc(S(=O)(=O)N(C)c4cccc(Cl)c4)cc32)c(C)c1C(=O)N1CCN(C)CC1", "residual activity": "61.8%"}
{"compound": "c1ccc(-c2n[nH]cc2-c2ccnc3ccccc23)nc1", "residual activity": "63%"}
{"compound": "CCN(CC)C(=O)c1ccc(Nc2nc(OCC3CCCCC3)c3nc[nH]c3n2)cc1", "residual activity": "62.6%"}
{"compound": "CNC(=O)c1cc(Oc2ccc(NC(=O)Nc3ccc(Cl)c(C(F)(F)F)c3)cc2)ccn1", "residual activity": "99.7%"}
{"compound": "CCC(=O)Nc1ccc2ncnc(Nc3cccc(Br)c3)c2c1", "residual activity": "97.9%"}
{"compound": "Cc1ccc(NC2=CC(=O)c3sc(C)nc3C2=O)cc1", "residual activity": "102%"}
{"compound": "N#CC(C#N)=C(N)/C(C#N)=C/c1ccc(O)cc1", "residual activity": "101%"}
{"compound": "O=C1NC(=O)/C(=C/c2ccc3c(c2)OC(F)(F)O3)S1", "residual activity": "94.8%"}
{"compound": "COc1ccc2c(c[n+](C)c3c4cc5c(cc4ccc23)OCO5)c1OC", "residual activity": "100%"}
{"compound": "CCN(CC)CCNC(=O)c1c(C)[nH]c(/C=C2\\C(=O)Nc3ccc(F)cc32)c1C", "residual activity": "20%"}
{"compound": "CC#CC(=O)Nc1cc2c(Nc3ccc(F)c(Cl)c3)ncnc2cn1", "residual activity": "98.7%"}
{"compound": "CC[n+]1c(/C=C/N(C)c2ccccc2)n(-c2ccccc2)c2ccc(-c3nc4ccccc4s3)cc21", "residual activity": "91.9%"}
{"compound": "Cc1ccc(S(=O)(=O)/C=C/C#N)cc1", "residual activity": "93.8%"}
{"compound": "CCOC(=O)c1c(C)[nH]c(/C=C2\\C(=O)Nc3ccccc32)c1C", "residual activity": "91.3%"}
{"compound": "O=C1Nc2ccc(Cl)cc2/C1=C/c1cc(Cl)c(O)c(Cl)c1", "residual activity": "91.5%"}
{"compound": "Cc1ccc(Nc2nccc(N(C)c3ccc4c(C)n(C)nc4c3)n2)cc1S(N)(=O)=O", "residual activity": "96.9%"}
{"compound": "O=c1cc(N2CCOCC2)oc2c1ccc1ccccc12", "residual activity": "102%"}
{"compound": "O=S(=O)(c1cccc2cnccc12)N1CCCNCC1", "residual activity": "65.1%"}
{"compound": "CC(=O)c1ccc(N2CCOCC2)cc1O", "residual activity": "102%"}
{"compound": "Nc1ncnc2[nH]nc(Nc3ccc(F)cc3)c12", "residual activity": "98.9%"}
{"compound": "Nc1cccc(-c2cc3c(Oc4cccc(O)c4)ncnc3[nH]2)c1", "residual activity": "94.4%"}
{"compound": "COc1ccc(COc2ccc(Cc3cnc(N)nc3N)cc2OC)cc1", "residual activity": "95.2%"}
{"compound": "CO[C@H]1CC2CC[C@@H](C)[C@@](O)(O2)C(=O)C(=O)N2CCCC[C@H]2C(=O)OC([C@H](C)C[C@@H]2CC[C@@H](O)[C@H](OC)C2)CC(=O)[C@H](C)/C=C(\\C)[C@@H](O)[C@@H](OC)C(=O)[C@H](C)C[C@H](C)/C=C/C=C/C=C/1C (some centres undefined)", "residual activity": "98.2%"}
